Origin of values: patent US8361998B2

Target: human cardiac ion channel proteins hKir3.1/Kir3.4 (Homo sapiens, UniProt P48544+P48549)
Construct: expressed in transfected cells
Sequence (P48549 1-501): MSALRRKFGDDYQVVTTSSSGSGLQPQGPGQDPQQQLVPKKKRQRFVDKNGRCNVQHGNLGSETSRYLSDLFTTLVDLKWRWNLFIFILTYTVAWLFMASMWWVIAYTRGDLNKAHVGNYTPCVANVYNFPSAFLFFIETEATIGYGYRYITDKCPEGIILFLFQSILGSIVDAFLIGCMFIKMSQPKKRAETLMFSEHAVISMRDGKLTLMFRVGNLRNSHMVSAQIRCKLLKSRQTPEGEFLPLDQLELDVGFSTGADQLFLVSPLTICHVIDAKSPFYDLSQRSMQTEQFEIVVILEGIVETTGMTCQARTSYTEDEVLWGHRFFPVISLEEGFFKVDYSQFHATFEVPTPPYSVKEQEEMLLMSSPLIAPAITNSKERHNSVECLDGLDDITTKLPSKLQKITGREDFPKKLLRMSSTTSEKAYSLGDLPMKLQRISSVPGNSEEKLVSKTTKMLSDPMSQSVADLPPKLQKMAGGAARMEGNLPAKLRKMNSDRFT
Sequence (P48544 1-419): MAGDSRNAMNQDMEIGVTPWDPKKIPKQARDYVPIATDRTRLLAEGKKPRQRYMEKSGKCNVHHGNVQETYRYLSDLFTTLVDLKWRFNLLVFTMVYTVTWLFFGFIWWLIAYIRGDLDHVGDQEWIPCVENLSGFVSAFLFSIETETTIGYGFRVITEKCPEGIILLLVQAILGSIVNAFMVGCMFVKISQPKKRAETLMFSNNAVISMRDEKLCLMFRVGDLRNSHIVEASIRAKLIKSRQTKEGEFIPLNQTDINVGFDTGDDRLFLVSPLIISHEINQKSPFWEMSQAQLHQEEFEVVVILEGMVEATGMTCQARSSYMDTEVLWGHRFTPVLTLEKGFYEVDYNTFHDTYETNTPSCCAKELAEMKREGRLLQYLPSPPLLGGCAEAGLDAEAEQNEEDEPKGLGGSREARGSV
Experiment: Atomic Absorption Screening (AAS) Rb efflux assay of hKir3.1/Kir3.4 block, carbachol/high K+ stimulated, 10-pt or 7-pt CR
Assay type: cell-based
Conditions: 10-pt CR (0.003 to 67 μmol/L), AAS Rb efflux, CHO-K1 cells expressing hKir3.1/Kir3.4; mean of >4 replicates; read-out: IKACh IC50 10-pt CR, AAS
measured-endpoint: pIC50
Schema: pIC50 number; meaning minus log10 of the concentration expressed in molar units.

CC(C)[C@H](CN1CCCC1)N(C)C(=O)c1ccc(Br)cc1	5.06
CC(C)[C@@H](CN1CCCC1)N(C)C(=O)c1ccc(Cl)cc1	5.17
CCC[C@@H](CN1CC(O)C1)N(C)C(=O)c1ccc(Br)cc1	5.77
CC(C)[C@@H](CN1CCCC1)N(C)C(=O)c1ccccc1OC(F)F	5.04
CCC[C@@H](CN1C[C@H](O)[C@H]1C)N(C)C(=O)c1ccc(F)cc1 (relative stereo)	5.04

Would you kindly look at the next entry?
Query :: Given the compound CC(C)[C@@H](CN1CCCC1)N(C(=O)c1ccc(Cl)cc1)C1CCCC1 , what is its reported pIC50?
Result :: 4.96

---

Reported pIC50 by item:
Molecular target: human cardiac ion channel proteins hKir3.1/Kir3.4 (Homo sapiens, UniProt P48544+P48549)
Construct: expressed in transfected cells
Sequence (P48549 1-501): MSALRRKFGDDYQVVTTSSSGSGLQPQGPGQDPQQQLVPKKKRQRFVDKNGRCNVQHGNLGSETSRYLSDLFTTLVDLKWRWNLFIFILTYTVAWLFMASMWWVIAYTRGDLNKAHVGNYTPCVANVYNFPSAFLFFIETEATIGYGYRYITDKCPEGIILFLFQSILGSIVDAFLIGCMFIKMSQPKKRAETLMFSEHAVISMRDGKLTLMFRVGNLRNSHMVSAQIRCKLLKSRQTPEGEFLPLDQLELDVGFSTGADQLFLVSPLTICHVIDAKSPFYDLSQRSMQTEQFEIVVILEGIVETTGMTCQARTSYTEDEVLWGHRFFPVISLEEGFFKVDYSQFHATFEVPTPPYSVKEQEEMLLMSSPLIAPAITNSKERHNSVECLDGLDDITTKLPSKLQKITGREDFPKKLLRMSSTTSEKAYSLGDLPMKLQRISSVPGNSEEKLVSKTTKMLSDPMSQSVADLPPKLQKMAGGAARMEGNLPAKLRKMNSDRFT
Sequence (P48544 1-419): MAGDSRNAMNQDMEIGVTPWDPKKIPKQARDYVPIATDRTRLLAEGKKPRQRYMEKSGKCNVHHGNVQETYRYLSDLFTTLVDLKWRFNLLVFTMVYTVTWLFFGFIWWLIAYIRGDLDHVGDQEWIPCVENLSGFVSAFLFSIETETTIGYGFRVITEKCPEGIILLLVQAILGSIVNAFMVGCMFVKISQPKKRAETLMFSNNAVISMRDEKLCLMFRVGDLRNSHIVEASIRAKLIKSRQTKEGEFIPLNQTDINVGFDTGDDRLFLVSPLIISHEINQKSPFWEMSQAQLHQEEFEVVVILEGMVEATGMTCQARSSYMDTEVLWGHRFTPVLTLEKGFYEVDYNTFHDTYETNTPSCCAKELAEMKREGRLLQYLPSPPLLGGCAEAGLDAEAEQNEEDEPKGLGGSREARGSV
Assay: Atomic Absorption Screening (AAS) Rb efflux assay of hKir3.1/Kir3.4 block, carbachol/high K+ stimulated, 10-pt or 7-pt CR
Assay type: cell-based
Conditions: 7-pt CR (0.037 to 27 μmol/L), AAS Rb efflux, CHO-K1 cells expressing hKir3.1/Kir3.4; mean of >3 replicates; read-out: IKACh IC50 7-pt CR, AAS
Description: Human KCNJ3 encoding Kir3.1 (Genbank acc. No. NM_002239) was inserted between EcoRI and NotI in the pIRESneo3 vector (Clontech Laboratories, Inc. CA, USA). […] The blocking effects of compounds on the human cardiac ion channel proteins hKir3.1/Kir3.4 were assessed in CHO-K1 cells stably expressing the channel proteins using Atomic Absorption Screening (AAS). […]
Schema: pIC50 number; meaning minus log10 of the concentration expressed in molar units.

Sample answers from the record:
CC(C)[C@@H](CN1CCCC1)N(C)C(=O)c1cc(F)cc(F)c1 [Example 16.12]	4.64
Cc1cc(C(=O)N(C)[C@H](CN2CCCC2)C(C)C)ccc1Cl [Example 16.50]	6.38
CC(C)[C@@H](CN1CCCC1)N(C)C(=O)c1ccc(F)c(Cl)c1 [Example 16.55]	5.85

Would you kindly look at the next entry?
Query :: Given the compound CC(C)[C@@H](CN1CC[C@H](O)C1)N(C)C(=O)c1cccc(Cl)c1F [Example 16.39] , what is its reported pIC50?
Result :: 5.41
